read-out: cysteine-aspartic acid protease (CASP8), CASP8 (gene 841); experiment: LTEA_HepaRG_CASP8: Life Technologies and Expression Analysis (LTEA) Assay for cysteine-aspartic acid protease (CASP8) using HepaRG (AID 2283480); details: mRNA level, 48 h; actives raise or lower the signal
The source made the active and inactive calls. How the source made its calls: active means hit-call score of the fitted dose curve at least 0.9, where 1 is the maximum; inactive means score below 0.9.
Possible outcomes: Yes (active), No (inactive)

# molecule, labelValue
measured = [
    ("OC[C@H]1O[C@@H]2O[C@H]3[C@H](O)[C@@H](O)[C@@H](O[C@H]4[C@H](O)[C@@H](O)[C@@H](O[C@H]5[C@H](O)[C@@H](O)[C@@H](O[C@H]6[C@H](O)[C@@H](O)[C@@H](O[C@H]7[C@H](O)[C@@H](O)[C@@H](O[C@H]1[C@H](O)[C@H]2O)O[C@@H]7CO)O[C@@H]6CO)O[C@@H]5CO)O[C@@H]4CO)O[C@@H]3CO", "No"),
    ("CCCCCCCCN(C)C", "No"),
    ("C[C@@H](Oc1ccc(CNC(=O)c2cccnc2Oc2ccc3c(c2)OCO3)c(F)c1)C(=O)O", "No"),
    ("CCCCOC(=O)c1ccccc1", "No"),
    ("O=C(O)c1ccc2c(c1)nc(C(=O)NC1CCN(C3CC3)CC1)n2Cc1cc(-c2ccc(Cl)s2)on1", "No"),
    ("O=C(O)c1cccc(C(=O)O)c1", "No"),
    ("OCC(CO)(CO)CO", "No"),
    ("CCc1ccc(O)c(C(C)(C)C)c1", "No"),
    ("CCCCCCOC(=O)CC(CC(=O)OCCCCCC)(OC(=O)CCC)C(=O)OCCCCCC", "No"),
    ("c1ccc(C(O[C@@H]2CCCN(CCc3ccc4c(c3)OCO4)C2)c2ccccc2)cc1", "Yes"),
    ("Cc1nccn1-c1ccc(Sc2cccc(C3(C(N)=O)CCOCC3)c2)cc1", "Yes"),
    ("NC(=O)N1c2ccccc2C=Cc2ccccc21", "No"),
    ("CC(C)C(=O)Nc1ccc([N+](=O)[O-])c(C(F)(F)F)c1", "No"),
    ("COCc1nnc(-c2ccc[n+]([O-])c2)n1-c1c(Cl)c(Cl)cc2[nH]c(=O)c(=O)[nH]c12", "No"),
    ("CCCCCCCCCCCCCCCCOS(=O)(=O)O", "No"),
    ("CC(C)CC(C)O (stereo not drawn)", "No"),
    ("CCCCN1C(=O)[C@@H]([C@H](O)C2CCCCC2)NC(=O)C12CCN(Cc1ccc(Oc3ccc(C(=O)O)cc3)cc1)CC2", "Yes"),
    ("Nc1ccn([C@@H]2O[C@H](CO)[C@@H](O)[C@@H]2O)c(=O)n1", "No"),
    ("CCCCCCCC1CCC(=O)O1 (stereo not drawn)", "No"),
    ("CC(C)c1nnc2ccc(-c3ocnc3-c3cc(F)ccc3F)cn12", "No"),
    ("OC(Cn1cncn1)(Cn1cncn1)c1ccc(F)cc1F", "No"),
    ("OCCNCCO", "No"),
    ("Cc1ccc(S(=O)(=O)NC(=O)NN2CCCCCC2)cc1", "No"),
    ("c1ccc2cc3ccccc3cc2c1", "No"),
    ("O=C(O)[C@H](O)[C@@H](O)C(=O)O", "No"),
    ("O=c1[nH]cnc2c1ncn2[C@H]1CC[C@@H](CO)O1", "No"),
    ("c1ccc2ncccc2c1", "No"),
    ("NC(=O)N(O)[C@@H]1COc2cc(OCc3ccccc3)ccc21", "No"),
    ("CC1(C)C(=O)N(Cl)C(=O)N1Cl", "No"),
    ("CCCCCCCC/C=C\\CCCCCCCC(=O)OC[C@@H](O)[C@H]1OC[C@H](O)[C@H]1O", "No"),
    ("CCCCC(CC)C(=O)OCCOCCOCCOC(=O)C(CC)CCCC (stereo not drawn)", "No"),
    ("CCCCCCCCCC", "No"),
    ("COS(C)(=O)=O", "No"),
    ("OC(CCl)CCl", "No"),
    ("CCOC(N)=O", "No"),
    ("CCCc1ccccc1", "No"),
    ("CC[C@H](C)C(=O)O[C@H]1C[C@H](O)C=C2C=C[C@H](C)[C@H](CC[C@@H](O)C[C@@H](O)CC(=O)O)[C@H]21", "No"),
    ("C=CCc1cc(S(=O)(=O)c2ccc(O)c(CC=C)c2)ccc1O", "No"),
]

====

read-out: Vascular cell adhesion molecule 1 (VCAM1), VCAM1 (gene 7412); test: BSK_hDFCGF_VCAM1: BioMAP Diversity Plus: hDFCGF Assay for Vascular cell adhesion molecule 1 (VCAM1) Biomarker Activity (AID 2283065); settings: primary human foreskin fibroblasts; actives raise or lower the signal
Activity calls are given as the source filed them. Rule for the calls: active = hit-call score of the fitted dose curve at least 0.9, where 1 is the maximum; inactive = score below 0.9.
Possible outcomes: class 1 = active, class 0 = inactive

# structureSmiles, labelValue
measured = [
    ("COc1cc(C(C)C)c2c(c1)S(=O)(=O)N(COc1cc(=O)n3cccc(OCCN4CCCCC4)c3n1)C2=O", "class 1"),
    ("FC(F)(F)COC(OCC(F)(F)F)OCC(F)(F)F", "class 0"),
    ("CCCc1ccccc1", "class 0"),
    ("Cc1ncc([C@@H](CCCCCCc2ccc3c(n2)NCCC3)CC(=O)O)cn1", "class 0"),
    ("Nc1ccn([C@@H]2O[C@H](CO)[C@@H](O)[C@@H]2O)c(=O)n1", "class 0"),
    ("C[C@]12C=CC(=O)C=C1CC[C@H]1[C@@H]3C[C@@H](O)[C@](O)(C(=O)CO)[C@@]3(C)C[C@H](O)[C@@]12F", "class 0"),
    ("NC(=O)N(O)[C@@H]1COc2cc(OCc3ccccc3)ccc21", "class 0"),
    ("CCCCCCOC(=O)CC(CC(=O)OCCCCCC)(OC(=O)CCC)C(=O)OCCCCCC", "class 0"),
    ("CC1(C)C(=O)N(Cl)C(=O)N1Cl", "class 0"),
    ("O=S1(=O)CCCO1", "class 0"),
    ("C=CN1CCCC1=O", "class 0"),
]

====

experiment: CCTE_Shafer_MEA_dev_inter_network_spike_interval_mean: CCTE's Neural Network Formation Assay for Mean Inter-network Spike Interval, Shafer Lab (AID 2284047)
Calls of active or inactive are those of the source. The calls were made as follows: active = hit-call score of the fitted dose curve at least 0.9, where 1 is the maximum; inactive = score below 0.9.
Possible outcomes: label 1 (active), label 0 (inactive)

# structureSmiles, labelValue
rows = [
    ("NNC(=O)c1ccncc1", "label 0"),
    ("c1ccc2c(c1)-c1cccc3c1c-2cc1ccccc13", "label 0"),
    ("FC(F)(F)C(F)(F)C(F)(F)C(F)(F)C(F)(F)C(F)(F)I", "label 0"),
    ("OC(O)(C(F)C(O)(O)C(F)(F)F)C(F)(F)F", "label 0"),
    ("COc1cc2c(c(OC)c1OC)-c1ccc(OC)c(=O)cc1[C@@H](NC(C)=O)CC2", "label 1"),
    ("CCOc1ccc2[nH]cc(C(=O)NCc3ccccc3)c(=O)c2n1", "label 0"),
    ("OC(Cn1cncn1)(Cn1cncn1)c1ccc(F)cc1F", "label 1"),
    ("FC(F)(F)COC(OCC(F)(F)F)OCC(F)(F)F", "label 0"),
]

====

assay: ACEA_AR_agonist_AUC_viability: ACEA Biosciences xCELLigence Real-Time Cell Analysis on Androgen Receptor Agonism for Viability (AID 2283775)
Records with an inconclusive call do not appear. Activity calls are given as the source filed them. How the source made its calls: active means hit-call score of the fitted dose curve at least 0.9, where 1 is the maximum; inconclusive means response in the unintended direction; inactive means score below 0.9.
Possible outcomes: active, inactive

# compound, labelValue
data = [
    ("c1ccc(C(O[C@@H]2CCCN(CCc3ccc4c(c3)OCO4)C2)c2ccccc2)cc1", "active"),
    ("OCC(CO)(CO)CO", "inactive"),
    ("C=CCc1cc(S(=O)(=O)c2ccc(O)c(CC=C)c2)ccc1O", "active"),
    ("CCCC(CCC)C(=O)O", "inactive"),
    ("OC(Cn1cncn1)(Cn1cncn1)c1ccc(F)cc1F", "inactive"),
    ("CCOc1ccc2[nH]cc(C(=O)NCc3ccccc3)c(=O)c2n1", "active"),
    ("CCc1ccc(O)c(C(C)(C)C)c1", "active"),
    ("Cc1nccn1-c1ccc(Sc2cccc(C3(C(N)=O)CCOCC3)c2)cc1", "active"),
    ("O=C(NO)C1(NS(=O)(=O)c2ccc(Oc3ccc(F)cc3)cc2)CCOCC1", "active"),
    ("O=S(=O)(O)c1ccc(N=Nc2c(O)ccc3cc(S(=O)(=O)O)ccc23)cc1", "inactive"),
    ("CNC(C)=O", "inactive"),
    ("c1ccc2cc3ccccc3cc2c1", "inactive"),
    ("COc1cc(C(C)C)c2c(c1)S(=O)(=O)N(COc1cc(=O)n3cccc(OCCN4CCCCC4)c3n1)C2=O", "active"),
    ("O=C(O)c1cccc(C[C@@H]2COc3ccc(OCc4nc5cc(F)ccc5s4)cc3[C@@H]2O)c1", "inactive"),
    ("Cc1ncc([C@@H](CCCCCCc2ccc3c(n2)NCCC3)CC(=O)O)cn1", "active"),
    ("CCCOc1ccc(S(=O)(=O)N2CCN(CC)CC2)cc1-c1nc2c(CC)n(Cc3ccccn3)nc2c(=O)[nH]1", "inactive"),
    ("CCCCCCCCN(C)C", "inactive"),
    ("CCCCC(CC)C(=O)OCCOCCOCCOC(=O)C(CC)CCCC (stereo unspecified)", "active"),
    ("CC(C)CCCCCCOC(=O)C1CCCCC1C(=O)OCCCCCCC(C)C (stereo unspecified)", "inactive"),
    ("O=C(O)c1cccc(C(=O)O)c1", "inactive"),
    ("NC(N)=O", "inactive"),
    ("COc1cc2c(c(OC)c1OC)-c1ccc(OC)c(=O)cc1[C@@H](NC(C)=O)CC2", "active"),
    ("CCc1cccc(CC)c1N", "active"),
    ("CCCc1ccccc1", "inactive"),
    ("CC(C)c1nnc2ccc(-c3ocnc3-c3cc(F)ccc3F)cn12", "active"),
    ("CCCCCCCCCCCCCCCCOS(=O)(=O)O", "active"),
]

Numbers sourced from PubChem BioAssay (EPA / NIEHS).
